Origin of the recorded values: paper PMC11239830

Provide the reported CC50 at 48 h of each item.
- test-protocol: CCK-8 assay for cytotoxicity
- Type: cell-based, human
- condition-context: human, HEK293T cells, HEK293T cell viability

According to the records, this molecule CC[C@H]1OC(=O)[C@H](C)[C@@H](O[C@H]2C[C@@](C)(OC)[C@@H](O)[C@H](C)O2)[C@H](C)[C@@H](O[C@@H]2O[C@H](C)C[C@H](N(C)C)[C@H]2O)[C@](C)(O)C[C@@H](C)C(=O)[C@H](C)[C@@H](O)[C@]1(C)O [erythromycin, reference compound] displays CC50 at 48 h of > 100 µM

According to the records, this molecule `CC[C@H]1OC(=O)[C@H](C)[C@@H](OC(=O)NCCCOCCC#Cc2ccc3c(=O)c(C(=O)O)cn(C)c3c2)[C@H](C)[C@@H](O[C@@H]2O[C@H](C)C[C@H](N(C)C)[C@H]2O)[C@](C)(OC)C[C@@H](C)C(=O)[C@H](C)[C@H]2NC(=O)O[C@@]21C` displays CC50 at 48 h of > 100 µM

According to the records, this molecule `CC[C@H]1OC(=O)[C@H](C)[C@@H](OC(=O)NCCCCCCC#Cc2ccc3c(=O)c(C(=O)O)cn(C)c3c2)[C@H](C)[C@@H](O[C@@H]2O[C@H](C)C[C@H](N(C)C)[C@H]2O)[C@](C)(OC)C[C@@H](C)C(=O)[C@H](C)[C@H]2NC(=O)O[C@@]21C` displays CC50 at 48 h of 25.7 µM

According to the records, this molecule CC[C@H]1OC(=O)[C@H](C)C(=O)[C@H](C)[C@@H](O[C@@H]2O[C@H](C)C[C@H](N(C)C)[C@H]2O)[C@](C)(OC)C[C@@H](C)C(=O)[C@H](C)[C@H]2N(CCCCn3cnc(-c4cccnc4)c3)C(=O)O[C@]12C [telithromycin, reference compound] displays CC50 at 48 h of > 100 µM

====

- Tested on: S. aureus
- test-protocol: MIC, broth microdilution
- Assay type: cell-based, Staphylococcus aureus
- condition-context: S. aureus PU32, Clinical, MRSA, i-ermA
quantity-name: MIC (µg/mL)
Express it in µg/mL; write the number only.

According to the records, this compound CC[C@H]1OC(=O)[C@H](C)[C@@H](O[C@H]2C[C@@](C)(OC)[C@@H](O)[C@H](C)O2)[C@H](C)[C@@H](O[C@@H]2O[C@H](C)C[C@H](N(C)C)[C@H]2O)[C@](C)(OC)C[C@@H](C)C(=O)[C@H](C)[C@@H](O)[C@]1(C)O [clarithromycin, reference compound] displays MIC of 16

According to the records, this compound CC[C@H]1OC(=O)[C@H](C)C(=O)[C@H](C)[C@@H](O[C@@H]2O[C@H](C)C[C@H](N(C)C)[C@H]2O)[C@](C)(OC)C[C@@H](C)C(=O)[C@H](C)[C@H]2N(CCCCn3cnc(-c4cccnc4)c3)C(=O)O[C@]12C [telithromycin, reference compound] displays MIC of 0.12

According to the records, this compound CC[C@H]1OC(=O)[C@H](C)[C@@H](OC(=O)NCCCOCCC#Cc2ccc3c(=O)c(C(=O)O)cn(C)c3c2)[C@H](C)[C@@H](O[C@@H]2O[C@H](C)C[C@H](N(C)C)[C@H]2O)[C@](C)(OC)C[C@@H](C)C(=O)[C@H](C)[C@H]2NC(=O)O[C@@]21C [MCX-190] displays MIC of 0.25

According to the records, this compound CC[C@H]1OC(=O)[C@H](C)[C@@H](OC(=O)NCCCCCCC#Cc2ccc3c(=O)c(C(=O)O)cn(C)c3c2)[C@H](C)[C@@H](O[C@@H]2O[C@H](C)C[C@H](N(C)C)[C@H]2O)[C@](C)(OC)C[C@@H](C)C(=O)[C@H](C)[C@H]2NC(=O)O[C@@]21C [MCX-219] displays MIC of 0.25
